Provide the recorded activity at 0.1 µM for the entries that follow.
Molecular target: HDAC6 (Homo sapiens)
Sequence (Q9UBN7 1-1215): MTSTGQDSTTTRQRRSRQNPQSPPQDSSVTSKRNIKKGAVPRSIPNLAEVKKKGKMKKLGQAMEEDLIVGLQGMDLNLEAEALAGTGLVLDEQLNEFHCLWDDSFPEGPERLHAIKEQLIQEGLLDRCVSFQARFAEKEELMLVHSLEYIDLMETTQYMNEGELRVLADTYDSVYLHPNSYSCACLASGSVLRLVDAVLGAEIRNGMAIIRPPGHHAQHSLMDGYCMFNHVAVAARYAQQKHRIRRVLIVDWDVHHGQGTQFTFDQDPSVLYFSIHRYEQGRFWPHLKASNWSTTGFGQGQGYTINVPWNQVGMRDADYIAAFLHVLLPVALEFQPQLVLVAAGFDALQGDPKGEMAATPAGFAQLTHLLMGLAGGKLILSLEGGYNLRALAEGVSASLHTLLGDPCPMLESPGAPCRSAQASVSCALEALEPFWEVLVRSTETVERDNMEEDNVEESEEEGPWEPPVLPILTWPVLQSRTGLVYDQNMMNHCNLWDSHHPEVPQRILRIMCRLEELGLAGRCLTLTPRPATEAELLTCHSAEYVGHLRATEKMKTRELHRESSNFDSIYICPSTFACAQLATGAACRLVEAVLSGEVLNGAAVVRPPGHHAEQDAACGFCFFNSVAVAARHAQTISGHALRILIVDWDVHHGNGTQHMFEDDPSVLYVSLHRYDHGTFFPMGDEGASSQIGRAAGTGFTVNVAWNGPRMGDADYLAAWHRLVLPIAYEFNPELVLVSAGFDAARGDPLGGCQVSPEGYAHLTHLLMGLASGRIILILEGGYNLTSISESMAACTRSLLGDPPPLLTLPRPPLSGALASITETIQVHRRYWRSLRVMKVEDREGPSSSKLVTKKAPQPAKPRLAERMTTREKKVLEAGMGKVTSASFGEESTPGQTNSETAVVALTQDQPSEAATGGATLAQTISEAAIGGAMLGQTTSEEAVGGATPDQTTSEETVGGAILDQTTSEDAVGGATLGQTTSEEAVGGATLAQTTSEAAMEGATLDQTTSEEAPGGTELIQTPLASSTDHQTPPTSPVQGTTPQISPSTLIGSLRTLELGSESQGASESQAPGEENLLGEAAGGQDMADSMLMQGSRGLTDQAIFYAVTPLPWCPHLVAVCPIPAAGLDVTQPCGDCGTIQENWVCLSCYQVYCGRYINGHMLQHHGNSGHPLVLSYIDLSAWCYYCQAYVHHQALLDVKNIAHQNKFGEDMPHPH
Test: ELISA-based HDAC activity assay, HDAC6
Settings: read-out: Deacetylase activity (%) HDAC6
Kindly provide the numeric value in % only, without the unit symbol.

Given the entry CCCCCCC(CCCC(=O)Nc1ccccc1)CCC(=O)NO (racemic) , report its measured activity at 0.1 µM.
56

Param item: O=C(CCC(CCCC(=O)Nc1ccccc1)Cc1ccccc1)NO (racemic)
60

// repeat for O=C(CC[C@H](CCCC(=O)Nc1ccccc1)Cc1ccccc1)NO [(S)-1f] and report
48

Same thing, different molecule: CCCCC(CCCC(=O)Nc1ccccc1)CCC(=O)NO (racemic)
46

Entry O=C(CC[C@@H](CCCC(=O)Nc1ccccc1)Cc1ccccc1)NO [(R)-1f] please
37

And for CCC(CCCC(=O)Nc1ccccc1)CCC(=O)NO (racemic) ?
61
